Examples of variants with documented folding stability dG follow.
B1: 2M8U (parent)
chain: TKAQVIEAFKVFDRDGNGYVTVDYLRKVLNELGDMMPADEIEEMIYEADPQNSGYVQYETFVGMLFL

Variants of: B1
Assay: folding stability dG (cDNA display proteolysis); higher = more stable
Settings: PBS, room temperature
Include the unit after the number when you answer.

INSERT INTO assay_data (variant_label, result_value) VALUES
  ('L65Q', '1.84 kcal/mol'),
  ('V22R', '3.59 kcal/mol'),
  ('D39H', '3.71 kcal/mol'),
  ('S53Y', '3.2 kcal/mol'),
  ('E59P', '2.47 kcal/mol'),
  ('V28Q', '2.25 kcal/mol'),
  ('Q4C', '3.56 kcal/mol'),
  ('D15R', '1.81 kcal/mol');

Just so you know, measured folding stability dG for L32Y came out at 3.28 kcal/mol

// F12R : folding stability dG value = 2.48 kcal/mol

Recorded folding stability dG (variant G33T ): 3.81 kcal/mol

Sample V22T ; folding stability dG observed: 3.19 kcal/mol

The reported value for G33A in terms of folding stability dG is 3.79 kcal/mol

Short answer for T1Y : folding stability dG was 2.83 kcal/mol

Form: variant = M44P ; folding stability dG = 1.8 kcal/mol

response.value for M35D (field: folding stability dG) = 2.96 kcal/mol

Documented folding stability dG of F61D : 0.727 kcal/mol

For reference, reported folding stability dG for V11M stands at 3.24 kcal/mol

Entry R14Y , folding stability dG reported as 3.69 kcal/mol
